# System: Escherichia coli
# experiment.summary: Antibacterial activity against Escherichia coli DH5 alpha-URA5924 isolates expressing CTX-M-32 by agar dilution method
# Assay type: functional
Field: label. Allowed values: Criterion met (MIC < 60 µg/mL) or Criterion not met (MIC >= 60 µg/mL).

Example cases with answers are listed next.
CO[C@@]1(NC(=O)Cc2cccs2)C(=O)N2C(C(=O)O)=C(COC(N)=O)CS[C@@H]21 ... Criterion met
C[C@@H](O)[C@H]1C(=O)N2C(C(=O)O)=C(SCCNC=N)C[C@H]12 [IMIPENEM ANHYDROUS] ... Criterion met
CC1(C)S[C@@H]2[C@H](NC(=O)C(C(=O)O)c3ccsc3)C(=O)N2[C@H]1C(=O)O (single isomer, unassigned) ... Criterion not met

Prompt line: Does CCN1CCN(C(=O)N[C@@H](C(=O)N[C@@H]2C(=O)N3[C@@H]2SC(C)(C)[C@@H]3C(=O)O)c2ccccc2)C(=O)C1=O have MIC strictly under 60 µg/mL?
Response line: Criterion not met

Prompt line: Does CO/N=C(\C(=O)N[C@@H]1C(=O)N2C(C(=O)O)=C(CSc3nc(=O)c(O)nn3C)CS[C@H]12)c1csc(N)n1 (stereo in doubt) have MIC strictly under 60 µg/mL?
Response line: Criterion not met

Prompt line: Does CO/N=C(\C(=O)N[C@@H]1C(=O)N2C(C(=O)O)=C(COC(C)=O)CS[C@H]12)c1csc(N)n1 (stereo in doubt) have MIC strictly under 60 µg/mL?
Response line: Criterion not met

Prompt line: Does O=C(O)c1cn(C2CC2)c2cc(N3CCNCC3)c(F)cc2c1=O have MIC strictly under 60 µg/mL?
Response line: Criterion met

Prompt line: Does CC(C)(O/N=C(\C(=O)N[C@@H]1C(=O)N2C(C(=O)[O-])=C(C[n+]3ccccc3)CS[C@H]12)c1csc(N)n1)C(=O)O have MIC strictly under 60 µg/mL?
Response line: Criterion met

###

# System: Escherichia coli
# experiment.summary: Antibacterial activity against CTX-M group 1 enzyme producing Escherichia coli isolates assessed as percent nonsusceptible isolates by broth microdilution method
# Assay type: functional
value.kind: Activity (%)
One number for each entry, in %.

Previously resolved entries follow.
C[C@@H](O)[C@H]1C(=O)N2C(C(=O)O)=C(S[C@@H]3CN[C@H](C(=O)N(C)C)C3)[C@H](C)[C@H]12 ... 0
CO[C@@]1(NC(=O)Cc2cccs2)C(=O)N2C(C(=O)O)=C(COC(N)=O)CS[C@@H]21 ... 5
NCC[C@H](O)C(=O)N[C@@H]1C[C@H](N)[C@@H](O[C@H]2O[C@H](CN)[C@@H](O)[C@H](O)[C@H]2O)[C@H](O)[C@H]1O[C@H]1O[C@H](CO)[C@@H](O)[C@H](N)[C@H]1O ... 7

Prompt line: Give the measured Activity for CC1COc2c(N3CCN(C)CC3)c(F)cc3c(=O)c(C(=O)O)cn1c23 (centres undefined)
Response line: 98

###

# Test system: Escherichia coli
# experiment.summary: Antibacterial activity against CTX-M group 1 enzyme producing Escherichia coli isolates assessed as percent nonsusceptible isolates by broth microdilution method
# Format: functional
value.kind: Activity (%)
Give bare numbers, in %.

Previously resolved entries follow.
CO/N=C(\C(=O)N[C@@H]1C(=O)N2C(C(=O)O)=C(CSc3nc(=O)c(O)nn3C)CS[C@H]12)c1csc(N)n1 (stereo in doubt) ... 100
C[C@H]1[C@H](NC(=O)/C(=N\OC(C)(C)C(=O)O)c2csc(N)n2)C(=O)N1S(=O)(=O)O ... 100
CO/N=C(\C(=O)N[C@@H]1C(=O)N2C(C(=O)O)=C(COC(C)=O)CS[C@H]12)c1csc(N)n1 (stereo in doubt) ... 100
CCn1cc(C(=O)O)c(=O)c2cc(F)c(N3CCNCC3)cc21 ... 98
C[C@@H](O)[C@H]1C(=O)N2C(C(=O)O)=C(SCCNC=N)C[C@H]12 [IMIPENEM ANHYDROUS] ... 0
CC1(C)S[C@@H]2[C@H](NC(=O)[C@H](N)c3ccccc3)C(=O)N2[C@H]1C(=O)O ... 100

Hi, could you look up Activity for each item in my list?
1. CC(=O)OCC1=C(C(=O)O)N2C(=O)[C@@H](NC(=O)Cc3cccs3)[C@H]2SC1
2. Cc1nnc(SCC2=C(C(=O)O)N3C(=O)[C@@H](NC(=O)Cn4cnnn4)[C@H]3SC2)s1
3. CC(C)(O/N=C(\C(=O)N[C@@H]1C(=O)N2C(C(=O)[O-])=C(C[n+]3ccccc3)CS[C@H]12)c1csc(N)n1)C(=O)O
4. CO/N=C(\C(=O)N[C@@H]1C(=O)N2C(C(=O)O)=C(COC(N)=O)CS[C@H]12)c1ccco1
5. CC1(C)S[C@@H]2[C@H](NC(=O)C(C(=O)O)c3ccsc3)C(=O)N2[C@H]1C(=O)O (single isomer, unassigned)
6. NC[C@H]1O[C@H](O[C@H]2[C@H](O)[C@@H](O[C@H]3O[C@H](CO)[C@@H](O)[C@H](N)[C@H]3O)[C@H](N)C[C@@H]2N)[C@H](N)C[C@@H]1O

Response line:
[100, 100, 99, 100, 100, 95]

Hi, could you look up Activity for each item in my list?
1. O=C(O)c1cn(C2CC2)c2cc(N3CCNCC3)c(F)cc2c1=O
2. CCN1CCN(C(=O)N[C@@H](C(=O)N[C@@H]2C(=O)N3[C@@H]2SC(C)(C)[C@@H]3C(=O)O)c2ccccc2)C(=O)C1=O

Response line:
1: 98; 2: 100

###

# System: Escherichia coli
# experiment.summary: Antibacterial activity against CTX-M group 9 enzyme producing Escherichia coli isolates assessed as percent resistant isolates by broth microdilution method
# Assay type: functional
value.kind: Activity (%)
Numbers only, in %.

CCn1cc(C(=O)O)c(=O)c2cc(F)c(N3CCNCC3)cc21 ... 33
CO[C@@]1(NC(=O)Cc2cccs2)C(=O)N2C(C(=O)O)=C(COC(N)=O)CS[C@@H]21 ... 0
CC(C)(O/N=C(\C(=O)N[C@@H]1C(=O)N2C(C(=O)[O-])=C(C[n+]3ccccc3)CS[C@H]12)c1csc(N)n1)C(=O)O ... 11
CO/N=C(\C(=O)N[C@@H]1C(=O)N2C(C(=O)[O-])=C(C[N+]3(C)CCCC3)CS[C@H]12)c1csc(N)n1 ... 78

Next up:
Prompt line: Report value: Activity, system: Escherichia coli, compound: C[C@H]1[C@H](NC(=O)/C(=N\OC(C)(C)C(=O)O)c2csc(N)n2)C(=O)N1S(=O)(=O)O
Response line: 11

###

# Test system: Escherichia coli
# experiment.summary: Antibacterial activity against CTX-M group 1 enzyme producing Escherichia coli isolates assessed as percent resistant isolates by broth microdilution method
# Format: functional
Record form. Attribute: Activity. Fill in for each entry.
Answers are plain numbers, in %.

Previously resolved entries follow.
C[C@H]1[C@H](NC(=O)/C(=N\OC(C)(C)C(=O)O)c2csc(N)n2)C(=O)N1S(=O)(=O)O ... 100
NCC[C@H](O)C(=O)N[C@@H]1C[C@H](N)[C@@H](O[C@H]2O[C@H](CN)[C@@H](O)[C@H](O)[C@H]2O)[C@H](O)[C@H]1O[C@H]1O[C@H](CO)[C@@H](O)[C@H](N)[C@H]1O ... 4
NC[C@H]1O[C@H](O[C@H]2[C@H](O)[C@@H](O[C@H]3O[C@H](CO)[C@@H](O)[C@H](N)[C@H]3O)[C@H](N)C[C@@H]2N)[C@H](N)C[C@@H]1O ... 94

Hi, could you look up Activity for each item in my list?
1. CO[C@@]1(NC(=O)Cc2cccs2)C(=O)N2C(C(=O)O)=C(COC(N)=O)CS[C@@H]21
2. CCn1cc(C(=O)O)c(=O)c2cc(F)c(N3CCNCC3)cc21
3. CC(C)(O/N=C(\C(=O)N[C@@H]1C(=O)N2C(C(=O)[O-])=C(C[n+]3ccccc3)CS[C@H]12)c1csc(N)n1)C(=O)O
4. CO/N=C(\C(=O)N[C@@H]1C(=O)N2C(C(=O)O)=C(COC(C)=O)CS[C@H]12)c1csc(N)n1 (stereo in doubt)

Response line:
[1, 98, 98, 99]

###

# Test system: Escherichia coli
# experiment.summary: Antibacterial activity against Escherichia coli DH5 alpha isolates by agar dilution method
# Type: functional
Field: label. Allowed values: TRUE (MIC < 0.2 µg/mL) or FALSE (MIC >= 0.2 µg/mL).

CC1(C)S[C@@H]2[C@H](NC(=O)C(C(=O)O)c3ccsc3)C(=O)N2[C@H]1C(=O)O (single isomer, unassigned) ... FALSE
CO[C@@]1(NC(=O)Cc2cccs2)C(=O)N2C(C(=O)O)=C(COC(N)=O)CS[C@@H]21 ... FALSE
O=C(O)c1cn(C2CC2)c2cc(N3CCNCC3)c(F)cc2c1=O ... TRUE

Prompt line: Does CCN1CCN(C(=O)N[C@@H](C(=O)N[C@@H]2C(=O)N3[C@@H]2SC(C)(C)[C@@H]3C(=O)O)c2ccccc2)C(=O)C1=O have MIC strictly under 0.2 µg/mL?
Response line: FALSE

Prompt line: Does CO/N=C(\C(=O)N[C@@H]1C(=O)N2C(C(=O)[O-])=C(C[N+]3(C)CCCC3)CS[C@H]12)c1csc(N)n1 have MIC strictly under 0.2 µg/mL?
Response line: TRUE

Prompt line: Does CC1(C)S[C@@H]2[C@H](NC(=O)[C@H](N)c3ccc(O)cc3)C(=O)N2[C@H]1C(=O)O have MIC strictly under 0.2 µg/mL?
Response line: FALSE

Prompt line: Does CO/N=C(\C(=O)N[C@@H]1C(=O)N2C(C(=O)O)=C(CSc3nc(=O)c(O)nn3C)CS[C@H]12)c1csc(N)n1 (stereo in doubt) have MIC strictly under 0.2 µg/mL?
Response line: TRUE

Prompt line: Does CC1(C)S[C@@H]2[C@H](/N=C\N3CCCCCC3)C(=O)N2[C@H]1C(=O)O have MIC strictly under 0.2 µg/mL?
Response line: TRUE

Prompt line: Does CC(C)(O/N=C(\C(=O)N[C@@H]1C(=O)N2C(C(=O)[O-])=C(C[n+]3ccccc3)CS[C@H]12)c1csc(N)n1)C(=O)O have MIC strictly under 0.2 µg/mL?
Response line: FALSE

Prompt line: Does CO/N=C(\C(=O)N[C@@H]1C(=O)N2C(C(=O)O)=C(COC(N)=O)CS[C@H]12)c1ccco1 have MIC strictly under 0.2 µg/mL?
Response line: FALSE
